Value source: PubChem BioAssay

Test Method Notes: P. aeruginosa biofilm formation inhibitors, primary screen, strain PAO1, LB-PBS medium, absorbance 600 nm (AID 1176); also: test concentration not given here
Condition Details: P. aeruginosa PAO1 growth/biofilm, A600, 12 h; higher = more signal
Property Measured: z-score
The response must contain the number and no unit.

Compound | z-score
COC(=O)[C@@]1(Cc2ccccc2)[C@H]2c3cc(C(=O)N(C)C)n(CCn4cc([N+](=O)[O-])nc4C)c3C[C@H]2CN1C(=O)c1ccccc1 | 1.41
O=C(O)[C@@H]1C[C@@H]2C(=O)N3CCC[C@H]3C(=O)N2[C@@H]1c1cccc(OCCO)c1 | 0.547
CC(C)C[C@@H]1NC(=O)CNC(=O)[C@@]23C(=O)N[C@@H](Cc4ccccc4)C2[C@H](C)[C@@]2(C)O[C@H]2C3/C=C/C/C=C\CNC1=O (some centres not stated) | 1.31
CCOC(=O)C[C@H]1[C@H](OC(=O)c2cc3ccccc3oc2=O)[C@@H](NC(=O)c2ccc3ccccc3c2)c2cc(OCCCO)ccc2N1C(=O)Cc1ccc(OC)cc1 | -0.304
COc1ccc([Si](C)(C)[C@H]2[C@H](CCO)O[C@@]3(C(=O)N(Cc4ccccc4)c4ccc(N5CCOC5=O)cc43)[C@@H]2C)cc1 | 2.41
C=C(/C(=C/C[C@@H](OC(C)=O)c1ccc(OCCO)cc1)c1cc(C(=O)OC)ccc1OC)C(C)C | 0.437

Field: next compound
So what's the measured z-score for this one? "Cc1ccc(S[C@]2(C(=O)NCc3ccccc3)CC(=O)N(Cc3cc(C(F)(F)F)cc(C(F)(F)F)c3)[C@@H]2c2ccc(CO)cc2I)cc1"
0.0214
